# Tested on: COLO-205
# methodDescription: in vitro colon cancer cell growth inhibition (NCI screen)
propertyLabel: cytotoxicity log GI50 (M)

In [3]: df
Out[3]:
                                   compound  unitofmeasure  observedmeasurement
0  COC(=O)CCCC(=O)NC1=C(NCc2ccccc2)C(=O)c2ccccc2C1=O [Compound 51]              M                -4.62
1  CCCC(=O)NC1=C(NCC)C(=O)c2ccccc2C1=O [Compound 46]              M                -4.44
2  Cc1nc2c(n1CCC(C)C)C(=O)c1ccccc1C2=O [Compound 11]              M                -4.84
3  CCNC1=C(NC(=O)c2ccc(OC)cc2)C(=O)c2ccccc2C1=O [Compound 49]              M                -4.43
4  O=C(NC1=C(Cl)C(=O)c2ccccc2C1=O)c1ccccc1 [Compound 2e]              M                -4.81
5  COc1ccc(CNC2=C(NC(C)=O)C(=O)c3ccccc3C2=O)cc1 [Compound 41]              M                -5.03
6  CCc1nc2c(n1CC)C(=O)c1ccccc1C2=O [Compound 23]              M                -4.77

---

# Test system: NCI-H522
# methodDescription: in vitro non-small cell lung cancer cell growth inhibition (NCI screen)
propertyLabel: cytotoxicity log GI50 (M)

>>> print(df.to_string())
                                   compound  observedmeasurement
0  Cc1nc2c(n1Cc1ccc(Cl)cc1)C(=O)c1ccccc1C2=O [Compound 20]                -5.26
1  CCNC1=C(NC(=O)c2ccccc2)C(=O)c2ccccc2C1=O [Compound 47]                -4.95
2  CCCC(C)NC1=C(NC(C)=O)C(=O)c2ccccc2C1=O (stereo not drawn) [Compound 33]                -4.19
3  CCn1c(Cc2ccc(F)cc2)nc2c1C(=O)c1ccccc1C2=O [Compound 66]                -5.06
4  CCn1c(C)nc2c1C(=O)c1ccccc1C2=O [Compound 5]                -6.62
5  O=C(O)CCc1nc2c(n1Cc1ccccc1)C(=O)c1ccccc1C2=O [Compound 61]                -4.62
6  CC(=O)NC1=C(NCC(C)(C)C)C(=O)c2ccccc2C1=O [Compound 38]                -4.72
7  O=C(Cc1ccccc1F)NC1=C(Cl)C(=O)c2ccccc2C1=O [Compound 2i]                -6.67
8  CCCC(=O)NC1=C(NCC)C(=O)c2ccccc2C1=O [Compound 46]                -4.59

---

# Test system: HT 29
# methodDescription: in vitro colon cancer cell growth inhibition (NCI screen)
propertyLabel: cytotoxicity log GI50

>>> print(df.to_string())
                                   molecule          propertylabel  observedmeasurement
0  Cc1ccc(Cn2c(C)nc3c2C(=O)c2ccccc2C3=O)cc1  cytotoxicity log GI50              -5.90 M
1  CCNC1=C(NC(=O)c2ccc(OC)cc2)C(=O)c2ccccc2C1=O  cytotoxicity log GI50              -4.63 M
2          Cc1nc2c(n1CCCl)C(=O)c1ccccc1C2=O  cytotoxicity log GI50              -4.80 M
3       CCCC(=O)NC1=C(NCC)C(=O)c2ccccc2C1=O  cytotoxicity log GI50              -4.36 M
4       Cc1nc2c(n1CCN(C)C)C(=O)c1ccccc1C2=O  cytotoxicity log GI50              -4.98 M
5  Cc1nc2c(n1Cc1ccc(Cl)cc1)C(=O)c1ccccc1C2=O  cytotoxicity log GI50              -5.39 M
6    CCn1c(-c2ccccc2)nc2c1C(=O)c1ccccc1C2=O  cytotoxicity log GI50              -5.05 M
